Biological target: T1, EsCas13d, nuclease-dead (Eubacterium siraeum, UniProt B0MS50, R295A;H300A;R849A;H854A)
T1 sequence: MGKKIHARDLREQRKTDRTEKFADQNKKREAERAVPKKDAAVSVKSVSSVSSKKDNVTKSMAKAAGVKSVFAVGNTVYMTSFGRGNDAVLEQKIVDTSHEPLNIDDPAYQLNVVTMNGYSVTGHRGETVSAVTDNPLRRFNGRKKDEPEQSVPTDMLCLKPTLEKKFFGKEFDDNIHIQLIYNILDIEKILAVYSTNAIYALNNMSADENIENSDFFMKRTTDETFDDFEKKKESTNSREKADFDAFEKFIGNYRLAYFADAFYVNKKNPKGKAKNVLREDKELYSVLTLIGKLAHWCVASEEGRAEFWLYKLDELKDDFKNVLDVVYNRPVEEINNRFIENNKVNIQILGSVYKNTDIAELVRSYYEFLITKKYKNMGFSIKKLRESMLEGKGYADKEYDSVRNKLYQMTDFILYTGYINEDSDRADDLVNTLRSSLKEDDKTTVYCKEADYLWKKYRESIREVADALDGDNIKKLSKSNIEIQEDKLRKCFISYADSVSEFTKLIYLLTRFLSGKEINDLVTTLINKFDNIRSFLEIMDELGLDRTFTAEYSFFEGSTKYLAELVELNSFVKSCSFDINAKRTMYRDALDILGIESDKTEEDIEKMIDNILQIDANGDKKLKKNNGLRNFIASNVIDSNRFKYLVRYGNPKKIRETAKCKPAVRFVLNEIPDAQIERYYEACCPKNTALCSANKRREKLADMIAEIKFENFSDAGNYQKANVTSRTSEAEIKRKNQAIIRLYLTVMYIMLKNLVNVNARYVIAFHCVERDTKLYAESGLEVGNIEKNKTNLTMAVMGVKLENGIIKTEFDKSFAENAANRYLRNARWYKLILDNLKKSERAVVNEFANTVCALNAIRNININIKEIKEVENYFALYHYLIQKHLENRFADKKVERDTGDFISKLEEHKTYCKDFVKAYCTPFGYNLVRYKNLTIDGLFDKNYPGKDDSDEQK
Assay: crRNA (strand 1, pre-loaded); Mg2+; 40 mM Tris-HCl pH 7.5, 150 mM NaCl, 6 mM MgCl2, 1 mM DTT, 0.1% Tween-20, 0.2 mg/ml BSA; 25 C; 10 min per concentration, then washed
Settings: tags: His6-TwinStrep-SUMO cleaved; N-terminal SNAP kept (SNAP-Surface 488); label: 3' end held by stalled T7 RNA polymerase
Rule: measured Kd below 9 nM gets t; anything equal to or greater than 9 nM gets f.

Known results for binders:
Binder	Assigned category
target 2 MT 5'PFS AAG 3'PFS AAC (mixed) RNA 1: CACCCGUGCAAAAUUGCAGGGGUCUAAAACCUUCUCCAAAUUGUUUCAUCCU RNA 2: GGGAAUGGAUCCACAUCUACGAAUUCAAGAGGAUGAAACAAUUUGGAGAAGAACAGAUCGGAAGAGCACACGU	t
target 1 insA 3' of 22,insU 3' of 9 (mixed) RNA 1: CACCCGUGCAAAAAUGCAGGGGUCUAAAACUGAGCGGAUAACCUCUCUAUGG RNA 2: GGGAAUGGAUCCACAUCUACGAAUUCGUACACAUAGAGAGGUUAUUCCGCUCACCGAGAUCGGAAGAGCACACGU	f
target 1 insG 3' of 8,insU 3' of 4 (mixed) RNA 1: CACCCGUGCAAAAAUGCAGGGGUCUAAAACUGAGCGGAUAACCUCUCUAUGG RNA 2: GGGAAUGGAUCCACAUCUACGAAUUCGUACCAUAGAGAGGUUAUGCCGCUUCACCGAGAUCGGAAGAGCACACGU	f
target 1 MT 5'PFS AUA 3'PFS CGG (mixed) RNA 1: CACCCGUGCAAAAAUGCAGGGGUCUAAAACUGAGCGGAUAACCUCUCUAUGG RNA 2: GGGAAUGGAUCCACAUCUACGAAUUCAUACCAUAGAGAGGUUAUCCGCUCACGGAGAUCGGAAGAGCACACGU	f

Please examine the following record next.
Could you please tell me whether Kd recorded for target 1 insG 3' of 6,insU 3' of 4 (mixed) RNA 1: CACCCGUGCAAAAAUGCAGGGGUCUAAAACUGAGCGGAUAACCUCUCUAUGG RNA 2: GGGAAUGGAUCCACAUCUACGAAUUCGUACCAUAGAGAGGUUAUCCGGCUUCACCGAGAUCGGAAGAGCACACGU is less than 9 nM? f
